Assignment: determine reported Percentage of NB4 cells differentiated for the given compounds.
test system: NB4 cells; assay: NB4 cell differentiation (TPA-induced nitroblue tetrazolium reduction); format: cell-based, human; conditions: retinoid alone at 1000 (concentration unit not given), 4 days
Numbers only, in %.

[
  {
    "compound": "CC1=C(/C=C/C(C)=C/C=C/C(C)=C/C(=O)O)C(C)(C)CCC1 [T-RA, all-trans retinoic acid]",
    "Percentage of NB4 cells differentiated (%)": 80
  }
]

// next entry
For the compound shown here, CC1=C(/C=C/C(C)=C\C=C\C(C)=C\C(=O)O)C(C)(C)CCC1 [Compound 9C-RA, 9-cis (9C-RA) retinoic acid] , give the reported Percentage of NB4 cells differentiated.
70

----------
tested on: NB4 cells; assay: NB4 cell differentiation (TPA-induced nitroblue tetrazolium reduction); assay type: cell-based, human; conditions: retinoid alone at 1000 (concentration unit not given), 4 days
reportedEndpoint: Percentage of NB4 cells differentiated

[
  {
    "compound": "CC1(C)CC=C(c2ccccc2)c2cc(/C=C/c3ccc(C(=O)O)cc3)ccc21",
    "reportedEndpoint": "Percentage of NB4 cells differentiated",
    "reportedMeasurement": "<1%"
  },
  {
    "compound": "CC1(C)CCC(C)(C)c2cc(C3(c4ccc(C(=O)O)cc4)OCCO3)ccc21",
    "reportedEndpoint": "Percentage of NB4 cells differentiated",
    "reportedMeasurement": "<2%"
  }
]

For the compound shown here, CC1(C)CC=C(c2cnc3ccccc3c2)c2cc(C(=O)Nc3ccc(C(=O)O)cc3)ccc21 , give the reported Percentage of NB4 cells differentiated.
<1%
